# System tested: Orexin/Hypocretin receptor type 1 (Homo sapiens) (UniProt O43613)
# Sequence (O43613 whole entry, looked up): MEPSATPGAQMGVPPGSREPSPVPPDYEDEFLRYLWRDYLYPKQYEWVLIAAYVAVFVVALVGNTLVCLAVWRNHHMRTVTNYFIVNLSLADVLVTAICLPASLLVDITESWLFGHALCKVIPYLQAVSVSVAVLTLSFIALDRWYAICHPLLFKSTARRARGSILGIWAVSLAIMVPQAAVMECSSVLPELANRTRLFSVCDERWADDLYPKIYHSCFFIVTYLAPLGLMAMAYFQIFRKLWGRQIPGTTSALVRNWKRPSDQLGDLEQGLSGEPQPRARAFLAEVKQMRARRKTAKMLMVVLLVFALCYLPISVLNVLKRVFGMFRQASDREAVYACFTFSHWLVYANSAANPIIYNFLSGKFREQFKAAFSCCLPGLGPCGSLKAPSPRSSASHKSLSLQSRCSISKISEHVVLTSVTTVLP
# Test description: antagonists of human orexin 1 receptor (OX1R) (AID 485270)
# Stated conditions: OX1R-expressing cells, FRET antagonist read-out; at 6.6 µM; hits give high values
In all, about 330,000 compounds went through this assay and about 5,800 (1.8%) were called active. The list comes from a sample in which actives are over-represented; it also holds close analogues and randomly drawn compounds.
I'd appreciate it if you could label each record using inhibition and these ranges: lower: < 5%; middle: ≥ 5% and < 10%; upper: ≥ 10%

| Compound | System tested | Class label |
| --- | --- | --- |
| CCOc1ccccc1Nc1nnc(SCC(=O)NCC2CCCO2)s1 (stereo not given) | Orexin/Hypocretin receptor type 1 (Homo sapiens) (UniProt O43613) | middle |
| CCOc1ccc(N(CC(=O)NCc2ccc(OC)cc2)S(=O)(=O)c2c(C)noc2C)cc1 | Orexin/Hypocretin receptor type 1 (Homo sapiens) (UniProt O43613) | lower |
| CCCCCCSc1ccc([C@@H]2[C@H]3C(=O)N(CC)C(=O)[C@H]3[C@]3(C(=O)OC)CCCCN23)cc1 | Orexin/Hypocretin receptor type 1 (Homo sapiens) (UniProt O43613) | lower |
| COc1cc(SC)ccc1C(=O)NNC(=O)C1COc2ccccc2O1 (stereo not given) | Orexin/Hypocretin receptor type 1 (Homo sapiens) (UniProt O43613) | middle |
| CCOC(=O)C1=CN(Cc2ccc(Br)cc2)S(=O)(=O)N(C)C1C (stereo not given) | Orexin/Hypocretin receptor type 1 (Homo sapiens) (UniProt O43613) | middle |
| Cc1cccc(N2O[C@H]3C=CC2CCCC3)n1 | Orexin/Hypocretin receptor type 1 (Homo sapiens) (UniProt O43613) | lower |
| Cc1ccc(S(=O)(=O)Nc2ccc(F)c(S(=O)(=O)N3CCOCC3)c2)cc1 | Orexin/Hypocretin receptor type 1 (Homo sapiens) (UniProt O43613) | upper |
| COC(=O)c1ccc(/C=C/c2c(-c3ccc(OC)cc3)sc3ccccc23)cc1 | Orexin/Hypocretin receptor type 1 (Homo sapiens) (UniProt O43613) | middle |
| NCC(=O)c1cccc2ccc[n+]([O-])c12 | Orexin/Hypocretin receptor type 1 (Homo sapiens) (UniProt O43613) | upper |
| Cc1cc(C)cc(NC(=O)C2CCCN2S(=O)(=O)c2cccc3cccnc23)c1 (stereo not given) | Orexin/Hypocretin receptor type 1 (Homo sapiens) (UniProt O43613) | upper |
| C#CCOCCOCCOCCNc1nc(N2CCN(C(=O)[C@H](CO)n3cc([C@@H](N)C(C)C)nn3)CC2)nc(N2CCN(C(=O)[C@H](CCC(=O)O)n3cc([C@@H](N)[C@H](C)CC)nn3)CC2)n1 | Orexin/Hypocretin receptor type 1 (Homo sapiens) (UniProt O43613) | lower |
| CC(C)COc1ccc(C(=O)NNC(=O)CCC(=O)c2cccs2)cc1 | Orexin/Hypocretin receptor type 1 (Homo sapiens) (UniProt O43613) | lower |
| CC(C)(C)OC(=O)C1=C(CO)CS[C@@H]2[C@H](NC(=O)Cc3ccccc3)C(=O)N12 | Orexin/Hypocretin receptor type 1 (Homo sapiens) (UniProt O43613) | upper |
| Cc1ccc(C)c(N2CCN(C(=O)CCc3nc(-c4cccc(C(F)(F)F)c4)no3)CC2)c1 | Orexin/Hypocretin receptor type 1 (Homo sapiens) (UniProt O43613) | middle |
| O=C(Nc1nccs1)C1CCCN1S(=O)(=O)c1cccc2cccnc12 (stereo not given) | Orexin/Hypocretin receptor type 1 (Homo sapiens) (UniProt O43613) | upper |
| Cc1ccc2cccc(O)c2[n+]1[O-] | Orexin/Hypocretin receptor type 1 (Homo sapiens) (UniProt O43613) | upper |
| Cc1cccc(NC(=O)C2CCN(S(=O)(=O)c3cccc4cccnc34)CC2)c1 | Orexin/Hypocretin receptor type 1 (Homo sapiens) (UniProt O43613) | middle |
| CCN(C[C@H]1N[C@@](Cc2ccccc2)(C(=O)OC)[C@H]2C(=O)N(Cc3ccccc3)C(=O)[C@@H]12)C(=O)c1ccc(C)cc1 | Orexin/Hypocretin receptor type 1 (Homo sapiens) (UniProt O43613) | lower |
| O=C(NCCC(=O)N1O[C@@H]2C=C[C@H]1C2)OCC1c2ccccc2-c2ccccc21 | Orexin/Hypocretin receptor type 1 (Homo sapiens) (UniProt O43613) | middle |
| Cc1scc(C(=O)NNC(=S)NCc2ccccc2)c1C | Orexin/Hypocretin receptor type 1 (Homo sapiens) (UniProt O43613) | upper |
